Test system: MDA-MB-435
Assay: NCI tumour cell line growth inhibition, 48 h
experimentalEndpoint: TGI

INSERT INTO measurements (compound, recordedvalue) VALUES
  ('CCOC(=O)c1c(SC(=O)/C=C/c2ccccc2)n(-c2ccccc2)c(=S)n(-c2ccccc2)c1=O', '> 100 µM'),
  ('CCOC(=O)Cn1sc2ncc([N+](=O)[O-])cc2c1=O', '30 µM'),
  ('CC12CCCC(CC(=O)c3[nH]c4ccccc4c31)C2 (stereo not drawn)', '0.949 µM'),
  ('COC(=O)[C@]12CCC(C)(C)C[C@H]1C1=CC[C@@H]3[C@@]4(C)C/C(=C/c5cccnc5)C(=O)C(C)(C)[C@@H]4CC[C@@]3(C)[C@]1(C)CC2', '20 µM'),
  ('C=C1CC[C@@]2(OC1)OC1C[C@H]3[C@@H]4CC=C5C[C@@H](O)CC(OC6OCC(OC(=O)[C@@H](O)[C@@H](C)CC)C(OC(C)=O)C6OC6OC(C)C(O)C(O)C6O)[C@]5(C)[C@H]4CC[C@]3(C)C1[C@@H]2C (stereo partly drawn)', '3.38 µM'),
  ('COc1ccc(-n2c(SCc3cc(OC)c(OC)c(OC)c3)nc3ccc(C)cc3c2=O)cc1', '4.72 µM'),
  ('Clc1cccc(Cl)c1C1SCC2=Nc3ccccc3CN21 (stereo not drawn)', '> 100 µM'),
  ('CCOc1cc(NC(C)=O)ccc1C(=O)NN1C(=O)C(Oc2ccccc2)C1c1ccc(O)c(OC)c1 (stereo not drawn)', '> 100 µM');

[in] Using known records, supply TGI for "COc1ccc(-n2cc(-c3cc(OC)c(OC)c(OC)c3)[nH]c2=S)cc1OC"
[out] > 100 µM

[in] Using known records, supply TGI for CC(=O)[C@]1(O)Cc2c(O)c3c(c(O)c2C(OC2OC(C)C(O)C(O)C2F)C1)C(=O)c1ccccc1C3=O (stereo partly drawn)
[out] 1.95 µM

[in] Using known records, supply TGI for COc1ccc(OC(=O)O[C@H]2[C@H](O[C@H]3[C@@H](O)COC(O[C@H]4C[C@H]5[C@@H]6CC=C7C[C@@H](O)CC[C@]7(C)[C@H]6CC[C@]5(C)[C@H]4[C@H](C)C(=O)CCC(C)C)[C@@H]3OC(C)=O)OC[C@@H](O)[C@@H]2O)cc1 (stereo partly drawn)
[out] 0.759 µM

[in] Using known records, supply TGI for COc1ccc(-c2c(C(C)=O)c(-c3ccccc3)n(C3OC(COC(C)=O)C(OC(C)=O)C(OC(C)=O)C3OC(C)=O)c(=S)c2C#N)cc1 (stereo not drawn)
[out] > 100 µM
